Origin of the recorded values: the METLIN SMRT retention time set (Domingo-Almenara et al. 2019)

Experiment: gradient 5% acetonitrile 3 min, to 50% in 2 min, to 85% in 15 min, held 3 min, 100 µL/min
Conditions: column: Zorbax Extend-C18 2.1 x 50 mm; eluents: water / acetonitrile, 0.1% formic acid
Classify by measured RP-LC retention time: Condition met if it is equal to or exceeds 800 s, Condition not met if it is smaller.

Worked examples follow.
COMPOUND	GROUP_LABEL
O=C([C@@H]1C[C@H](Oc2ccccc2)CN1C(=O)CCC1CCCC1)N1CCCC1	Condition met
Cc1cc(C(=O)Nc2nc(-c3ccccc3)cs2)ccc1[N+](=O)[O-]	Condition met
O=C(c1cc2c(s1)CCCC2)N1CCN(c2nnc3ccccn23)CC1	Condition not met
CC(C)NC(=O)c1cc(N2CCCC2)nc2ccccc12	Condition not met

Prompt: Is RP-LC retention time at least 800 s? Consider CCn1cc(-c2nc(CC(=O)NCc3ccccc3Cl)cs2)c2cccnc21
Completion: Condition met

Prompt: Next up: CCOc1ccccc1NC(=O)Cn1nc2n(c1=O)CCCCC2
Completion: Condition not met

Prompt: Next up: O=C(O)CNS(=O)(=O)c1cccc2nsnc12
Completion: Condition not met
